Please provide measured growth inhibition for the entries that follow.
Test: NCI Yeast Anticancer Drug Screen. Data for the sgs1 mgt1 strain (AID 161);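 note: 0% = growth of cultures given vehicle only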
Conditions: S. cerevisiae sgs1 mgt1 strain, at 50.0 µM, active compounds read high
Procedure: Growth inhibition of yeast strains with defined genetic alterations is measured as a screen for potential anti-cancer activity. Selected strains with alterations in DNA damage repair or cell cycle control were exposed to compounds and growth inhibition was measured relative to vehicle treated controls. The strain used in this assay is sgs1 mgt1
About 79,000 compounds went through this panel and 15% of them were active in at least one assay; those are over-represented in the sample as a whole.
Record the value in %, omitting the unit from your answer.

Ask | Identify measured growth inhibition corresponding to CCCCCCCCCCCCCCCc1c(NC(C)(CC(C)(C)O)[P+](=O)O)c(=O)n(C)n1C (configuration not stated)
Reply | -30.9

Ask | Identify measured growth inhibition corresponding to O=S(Cc1ccccc1)CC(O)CO (configuration not stated)
Reply | 2.7

Ask | Identify measured growth inhibition corresponding to `CCCCCC/C=N\OC(N)=O`
Reply | -4.9

Ask | Identify measured growth inhibition corresponding to COc1ccc(C[C@H](N)C(=O)NC2C(CO)OC(n3cnc4c(N(C)C)ncnc43)C2O)cc1 (some centres not stated)
Reply | -18.4

Ask | Identify measured growth inhibition corresponding to `O=C(CCC(=O)Nc1ccc(Cl)c(Cl)c1)CC(=O)c1ccc2ccccc2c1`
Reply | 2.45

Ask | Identify measured growth inhibition corresponding to `CCC(=O)OC1(C(=O)OC)CCN(C)CC1`
Reply | -0.9

Ask | Identify measured growth inhibition corresponding to `O=C(NNC(=O)c1cccc(F)c1)c1cccc(F)c1`
Reply | -13.3

Ask | Identify measured growth inhibition corresponding to O=C(Nc1ccn(C2CCC(CO)O2)c(=O)n1)c1ccccc1 (configuration not stated)
Reply | -16.7

Ask | Identify measured growth inhibition corresponding to `CNC(=O)OCc1c(COC(=O)NC)c2n(c1C)CS(=O)(=O)C2`
Reply | -10.4

Ask | Identify measured growth inhibition corresponding to `CSc1ccc(NC(=O)CCc2ccccc2)cc1`
Reply | 13.2

Ask | Identify measured growth inhibition corresponding to COc1ccc(NC(=O)C(=O)C2CNC(=O)NC2=O)c(OC)c1 (configuration not stated)
Reply | -17.6

Ask | Identify measured growth inhibition corresponding to O=c1ccn(C2OC(CO)C(O)C2Cl)c(=O)[nH]1 (configuration not stated)
Reply | -11.4

* * *

assay: NCI Yeast Anticancer Drug Screen. Data for the bub3 strain (AID 167); conditions: S. cerevisiae bub3 mutant strain, at 50.0 µM, active compounds read high
Compounds without any hit were thinned out: in the full panel of roughly 79,000, 15% have a hit.
ASSAY ENDPOINT: growth inhibition (%)
Record the value in %, omitting the unit from your answer.

Ask | Identify measured growth inhibition corresponding to CC(O)(C1CC1)C(C(=O)O)c1ccccc1 (stereo not drawn)
Reply | 1.55

Ask | Identify measured growth inhibition corresponding to CCCCC(=O)OCC(=O)[C@]1(O)Cc2c(O)c3c(c(O)c2[C@@H](OC2CC(NC(=O)C(F)(F)F)C(O)C(C)O2)C1)C(=O)c1c(OC)cccc1C3=O (stereo partly drawn)
Reply | 53

Ask | Identify measured growth inhibition corresponding to `Cc1cccc(-c2nnc3s/c(=C\c4ccc(N(C)C)cc4)c(=O)n23)c1`
Reply | 13.5

Ask | Identify measured growth inhibition corresponding to `COc1cccc(NC(=O)c2cccc(C(=O)Nc3cccc(OC)c3)c2)c1`
Reply | -2.6

Ask | Identify measured growth inhibition corresponding to `CCOC(=O)/C=C(/C)C#N`
Reply | 9.55

Ask | Identify measured growth inhibition corresponding to `c1ccc(-n2nnnc2-c2nnnn2-c2ccccc2)cc1`
Reply | 20.7

Ask | Identify measured growth inhibition corresponding to `COC(=S)SCSC(=S)OC`
Reply | -6.45

Ask | Identify measured growth inhibition corresponding to `CC(C)NC(=O)OCc1c(COC(=O)NC(C)C)c(Sc2ccccc2)n2c1CCC2`
Reply | 9.1

Ask | Identify measured growth inhibition corresponding to CCOC(=O)C(NC(C)=O)(C(=O)OCC)C1CCCCC1=O (stereo not drawn)
Reply | -10.8

Ask | Identify measured growth inhibition corresponding to CC(Cc1ccco1)C(=O)O (stereo not drawn)
Reply | 1.9

Ask | Identify measured growth inhibition corresponding to `O=C(NNC(=S)S)c1ccncc1`
Reply | 11.7

Ask | Identify measured growth inhibition corresponding to `CN(c1ccccc1)c1nc(Cl)c(Cl)c(Cl)n1`
Reply | 2.45

Ask | Identify measured growth inhibition corresponding to `N#CCCOCc1ccccc1`
Reply | -15.1

Ask | Identify measured growth inhibition corresponding to C=C1C[C@]23CC[C@@H]4C(CO)(CO)CC(=O)C[C@]4(C)[C@@H]2C(O)C[C@H]1C3 (stereo partly drawn)
Reply | 7.05

Ask | Identify measured growth inhibition corresponding to `CC(C)(C)c1cc(C#N)cc(Br)c1O`
Reply | 97.7

Ask | Identify measured growth inhibition corresponding to `CCOC(=O)/C(=C\c1ccc(OCc2ccccc2)c(OC)c1)C(=O)c1ccccc1`
Reply | -13.4

Ask | Identify measured growth inhibition corresponding to N#CC12CC=C(c3ccccc3)N=C1NC(c1ccccc1)=CC2 (stereo not drawn)
Reply | -1.65

Ask | Identify measured growth inhibition corresponding to `O=[N+]([O-])c1ccccc1SCl`
Reply | 2

Ask | Identify measured growth inhibition corresponding to CNCC(SC)c1ccc(O)c(O)c1 (stereo not drawn)
Reply | -31

Ask | Identify measured growth inhibition corresponding to `O=c1c[n+](-c2ccccc2)[nH]o1`
Reply | 7.7

Ask | Identify measured growth inhibition corresponding to CCCCC(CC)COC(=O)CCl (stereo not drawn)
Reply | -1.6

Ask | Identify measured growth inhibition corresponding to `CCOC(=O)C(/C=C/C(C)C)(CC)C(=O)OCC`
Reply | -6.95

Ask | Identify measured growth inhibition corresponding to `C1CCN=C(N2CCCCCC2)CC1`
Reply | 13.6

Ask | Identify measured growth inhibition corresponding to `CCOC(=O)C(=Cc1ccc(Oc2ccccc2)cc1)C(=O)OCC`
Reply | 6.1

Ask | Identify measured growth inhibition corresponding to `CCOC(=O)c1ncc(Cl)cc1NC(=O)CC(=O)Nc1cc(Cl)cnc1C(=O)OCC`
Reply | 1.1

Ask | Identify measured growth inhibition corresponding to CCOC(=O)C1CCC/C1=N/Nc1ccc([N+](=O)[O-])cc1[N+](=O)[O-] (stereo not drawn)
Reply | -5.3

Ask | Identify measured growth inhibition corresponding to `Cc1cc(C)c2c(ccc3ccccc32)n1`
Reply | -19.9

Ask | Identify measured growth inhibition corresponding to `O=[N+]([O-])c1ccc(C=Nc2ccc3c(c2)Cc2ccccc2-3)cc1`
Reply | -16.4

Ask | Identify measured growth inhibition corresponding to `O=NN(CCCl)C(=S)NC1CCCCC1`
Reply | -3.6

Ask | Identify measured growth inhibition corresponding to CC1=CCCC(C)(C)C1/C=C/C(=O)O (stereo not drawn)
Reply | -18.1

Ask | Identify measured growth inhibition corresponding to `OCCCCCCCCCCCBr`
Reply | 9.4

Ask | Identify measured growth inhibition corresponding to COc1cccc(C2c3cc4c(cc3OC(N3CCOCC3)C2C)OCO4)c1OC (stereo not drawn)
Reply | -2.05

Ask | Identify measured growth inhibition corresponding to `CCCCCCCCCCCCCCCCCN(C)C(=O)OCC`
Reply | -7.15

* * *

Please provide measured growth inhibition for the entries that follow.
test: NCI Yeast Anticancer Drug Screen. Data for the mlh1 rad18 strain (AID 175); conditions: S. cerevisiae mlh1 rad18 strain growth inhibition; at 50.0 µM; active compounds read high
About 79,000 compounds went through this panel and 15% of them were active in at least one assay; those are over-represented in the sample as a whole.
Record the value in %, omitting the unit from your answer.

Ask | Identify measured growth inhibition corresponding to `O=C(NC1CCCCC1)OC/C=C\c1ccccc1`
Reply | 3.8

Ask | Identify measured growth inhibition corresponding to CN1CCCCC1C[CH2][Sn]([c]1ccccc1)([c]1ccccc1)[c]1ccccc1 (stereo not given)
Reply | 99.5

Ask | Identify measured growth inhibition corresponding to COC(=O)c1c2c(cc3c1CC1(Cc4cc5c(c(C(C)=O)c4C1)CCC5)C3)CCC2 (stereo not given)
Reply | -41.5

Ask | Identify measured growth inhibition corresponding to `CCc1ccc(O[Si](C)(C)C)cc1`
Reply | -3.9

Ask | Identify measured growth inhibition corresponding to `O=C1CCCc2[nH]c(=O)ccc21`
Reply | 9.9

Where do the numbers come from? From PubChem BioAssay (NCI).
